System: Candida albicans
Test: Antifungal activity against Candida albicans ATCC 10231 assessed as growth inhibition at 200 uM after 24 hrs
Type: functional
Conditions: ATCC 10231, 24 h
Rule: inhibition at 200 µM under 60% gives condition not met, otherwise condition met.

SUBSTANCE: H-RKRRKWKK-NH2
ASSAYED_SYSTEM: Candida albicans
CATEGORY_LABEL: condition not met
--
SUBSTANCE: H-RKWRRKWKK-NH2
ASSAYED_SYSTEM: Candida albicans
CATEGORY_LABEL: condition met

Entry H-RKRRKKK-NH2 : is its inhibition at 200 µM no less than 60%? condition not met

* * *

System: Cryptococcus neoformans
Assay: Antifungal activity against Cryptococcus neoformans ATCC 32264 assessed as growth inhibition at 25 uM after 48 hrs
Type: functional
Details: ATCC 32264, 48 h
Peptide text beside a SMILES is read from it.
Quick reference for inhibition at 25 µM among some molecules
Give just the number in %; leave the unit off.

Look over these answered cases.
MOLECULE: NCCCC[C@H](NC(=O)[C@H](CCCCN)NC(=O)[C@H](Cc1c[nH]c2ccccc12)NC(=O)[C@@H](N)CCCCN)C(N)=O (H-KWKK-NH2)
ASSAY_VALUE: 0
//
MOLECULE: CC[C@H](C)[C@H](NC(=O)[C@H](CCCCN)NC(=O)[C@@H](NC(=O)[C@H](CCC(N)=O)NC(=O)[C@@H](N)CCCNC(=N)N)[C@@H](C)CC)C(=O)N[C@@H](Cc1c[nH]c2ccccc12)C(=O)N[C@@H](Cc1ccccc1)C(=O)N[C@@H](CCC(N)=O)C(=O)N[C@@H](CC(N)=O)C(=O)N[C@@H](CCCNC(=N)N)C(=O)N[C@@H](CCCNC(=N)N)C(=O)N[C@@H](CCSC)C(=O)N[C@@H](CCCCN)C(=O)N[C@@H](Cc1c[nH]c2ccccc12)C(=O)N[C@@H](CCCCN)C(=O)N[C@@H](CCCCN)C(N)=O
ASSAY_VALUE: 100
//
MOLECULE: CC(=O)N1CCN(c2ccc(OCC3COC(Cn4ccnc4)(c4ccc(Cl)cc4Cl)O3)cc2)CC1 (stereo not given)
ASSAY_VALUE: 100
//
MOLECULE: C[C@@H]1[C@H](O)[C@@H](C)/C=C/C=C/C=C/C=C/C=C/C=C/C=C/[C@H](O[C@@H]2O[C@H](C)[C@@H](O)[C@H](N)[C@@H]2O)C[C@@H]2O[C@](O)(C[C@@H](O)C[C@@H](O)[C@H](O)CC[C@@H](O)C[C@@H](O)CC(=O)O[C@H]1C)C[C@H](O)[C@H]2C(=O)O
ASSAY_VALUE: 100

What value of inhibition at 25 µM has been reported for the following molecule? N=C(N)NCCC[C@H](N)C(=O)N[C@@H](CCC(N)=O)C(=O)N[C@@H](CCCCN)C(=O)N[C@@H](CCCCN)C(N)=O (H-RQKK-NH2) 62

* * *

System: Candida albicans
Experiment: Antifungal activity against Candida albicans ATCC 10231 assessed as growth inhibition at 12.5 uM after 24 hrs
Assay type: functional
Settings: ATCC 10231, 24 h
Catalogue of substances with associated inhibition at 12.5 µM
Could you give me the number in %? Just the number is fine.

SUBSTANCE: H-RKFRRKFKK-NH2
inhibition at 12.5 µM / %: 0
--
SUBSTANCE: H-RKWRRKWKK-NH2
inhibition at 12.5 µM / %: 15
--
SUBSTANCE: H-RKRRKWKK-NH2
inhibition at 12.5 µM / %: 0

I am curious: what inhibition at 12.5 µM value has been reported for H-RKRRKKK-NH2 ? 0

// inhibition at 12.5 µM lookup, key: H-WKQKNIKWRFRQKMIR-NH2 0
